Every entry's value here was drawn from ChEMBL document CHEMBL1201862.

# Test system: NCI-H460
# method notes: NCI tumour cell line growth inhibition, 48 h
Activity calls are given as the source filed them. Rule as the data show it: active = GI50 up to about 1.1 µM and inactive = higher.
quantity measured: GI50

compound	measured target	quantity measured	result
O=C(O)CS(=O)(=O)C(c1ccccc1)c1ccccc1	NCI-H460	GI50	> 100 µM (inactive)
O=C1C(Cl)=C(Nc2ccc(OC(F)(F)F)cc2)C(=O)c2c(O)ccc(O)c21	NCI-H460	GI50	1.71 µM (inactive)
Cc1cc(N(CCC#N)CCC#N)ccc1C(=N/NC(=O)c1cc(Cl)ccc1O)/N=N/c1cccc(Cl)c1	NCI-H460	GI50	6.27 µM (inactive)
COc1cc(C2[C@H]3C(=O)N(c4ccc(Cc5ccc(N6C(=O)[C@@H]7ON(c8ccccc8)C(c8cc(OC)c(OC)c(OC)c8)[C@@H]7C6=O)cc5)cc4)C(=O)[C@H]3ON2c2ccccc2)cc(OC)c1OC (some centres undefined)	NCI-H460	GI50	> 100 µM (inactive)
Cn1c(=O)c2nc(/N=N/Nc3nncs3)[nH]c2n(C)c1=O	NCI-H460	GI50	> 100 µM (inactive)
Cn1c2ncccc2n2c(=O)cc(O)cc12	NCI-H460	GI50	60.5 µM (inactive)
COC(=O)C(=O)C(C(=O)C(=O)Nc1ccccc1C(N)=O)c1nc2ccc([N+](=O)[O-])cc2nc1O (centres undefined)	NCI-H460	GI50	> 100 µM (inactive)
CC(C(=O)O)C1Nc2ccccc2NC1=O (centres undefined)	NCI-H460	GI50	> 100 µM (inactive)
O=C1Nc2ccccc2/C1=C/c1ccccc1	NCI-H460	GI50	15.5 µM (inactive)

###

# System: UO-31
# method notes: NCI tumour cell line growth inhibition, 48 h
Active and inactive are the calls of the source. Rule as the data show it: active = GI50 up to about 1.1 µM and inactive = higher.
Below, each entry is listed with its recorded GI50.

molecule	GI50
COc1ccccc1N1C(=O)/C(=C\c2cccc(Oc3ccccc3)c2)S(=O)(=O)C1c1ccccc1 (configuration not stated)	46.8 µM (inactive)
CCOP(=O)(OCC)C(Cc1ccc(OC)c(OC)c1)N=C(c1ccccc1)c1ccccc1 (configuration not stated)	40.4 µM (inactive)
COc1cc2ccc3c4cc(OC)c(OC(C)C)cc4c[n+](C)c3c2cc1OC	> 100 µM (inactive)
Cc1ccc(C(=O)Nc2ccc(S(=O)(=O)O)c3cc(S(=O)(=O)O)cc(S(=O)(=O)O)c23)cc1NC(=O)c1cccc(NC(=O)Nc2cccc(C(=O)Nc3cc(C(=O)Nc4ccc(S(=O)(=O)O)c5cc(S(=O)(=O)O)cc(S(=O)(=O)O)c45)ccc3C)c2)c1	39.4 µM (inactive)
C=C(C)/C=C/C(O)[C@](C)(O)[C@H]1[C@H](O)C[C@@]2(C)[C@@H]3CCc4c(cc(OC5OC(CO)C(O)C(O)C5O)c(O)c4C)C3(C)C(=O)C[C@]12C (some centres not stated)	> 100 µM (inactive)
O=C(Nc1ccc(Cl)cc1)c1cc(S(=O)(=O)Nc2n[nH]c(=O)n2-c2ccccc2)c(S)cc1Cl	> 100 µM (inactive)
[O-]c1c[n+](-c2ccccc2)no1	> 100 µM (inactive)

###

Below, each entry is listed with its recorded GI50.
# Test system: Malme-3M
# method notes: NCI tumour cell line growth inhibition, 48 h
Activity calls are given as the source filed them. Cut-off read from the data, not from the text of the source: active = GI50 up to about 1.1 µM and inactive = higher.
quantity measured: GI50

> print(dat)
                                    compound  quantity.measured               result
 1  O=c1[nH]c(=S)c2cc3c(=S)[nH]c(=O)n(CCC(c4ccccc4)(c4ccccc4)c4ccccc4)c3nc2n1CCC(c1ccccc1)(c1ccccc1)c1ccccc1               GI50  > 100 µM (inactive)
 2  Cc1ccccc1C(C#N)/C(=N/NC(=O)C(=O)NN)C(=O)Nc1cccc(C(F)(F)F)c1 (stereo not given)               GI50  > 100 µM (inactive)
 3  O=c1cc(O)ccn1C1C=C(CO)C(O)C1O (stereo not given)               GI50  > 625 µM (inactive)
 4          Cc1nc2ccc(Cl)cc2c2c1CCN2c1ccccc1               GI50   17.4 µM (inactive)
 5  CC1(O)CCC2(C#N)CCC1C2O (stereo not given)               GI50  > 100 µM (inactive)
 6  CC1(C)Cc2c(cnn2-c2ccc(C(F)(F)F)cc2)-c2[nH]c(-c3ccc(O)cc3)nc21               GI50   14.6 µM (inactive)
 7  CN1C(=O)C(Cl)(C(Cl)(Cl)S(=O)(=O)O)C(=O)c2ccccc21.c1ccncc1 (stereo not given)               GI50   33.2 µM (inactive)
 8                           NCC#CCNCCCN1CC1               GI50  > 100 µM (inactive)
 9  O=C1Cc2c([nH]c3ccc(Br)cc23)-c2ccccc2N1 [KENPAULLONE]               GI50  > 100 µM (inactive)
10             Cc1ccc2nc3cc(C)c(=O)cc-3sc2c1               GI50  > 100 µM (inactive)

###

# Tested on: HCC 2998
# method notes: NCI tumour cell line growth inhibition, 48 h
Activity calls are given as the source filed them. No stated cut-off is given here; in the data, active = GI50 up to about 1.1 µM and inactive = higher.
Possible outcomes: active, inactive

compound	assigned label
COC(=O)/C=C1/CCC2[C@@H](C(=O)CC3[C@]2(C)CCC[C@@]3(C)C(=O)OC)C1C (some centres undefined)	inactive
COc1ccc2cc(CNCCCCCCCCCCCCNCc3ccc4cc(OC)ccc4c3)ccc2c1	inactive
Cc1nn2c(=O)c([N+](=O)[O-])c(/C=C/c3ccco3)nc2s1	inactive
CN1N=C(Nc2ccccc2)Sc2c1cnn(-c1ccccc1)c2=O	inactive
CC(=O)Oc1ccc(C2SCc3nc4ccccc4n32)cc1 (centres undefined)	inactive
CC(=O)O[C@H]1C(=O)[C@@]2(C)C(C(OC(=O)c3ccccc3)[C@]3(O)CC(OC(=O)C(O)C(NC(=O)c4ccc(C(F)(F)F)cc4)c4ccccc4)C(C)=C1C3(C)C)[C@]1(OC(C)=O)CO[C@@H]1C[C@@H]2O (some centres undefined)	active
Cc1ccccc1C(C#N)/C(=N/NC(=O)C(=O)NN)C(=O)Nc1cccc(C(F)(F)F)c1 (centres undefined)	inactive
CCC(C)SC1SCC2C(=O)N(C)C3(CC3C)C(=O)OCC(NC(=O)c3nc4ccccc4cc3O)C(=O)NC(C)C(=O)N(C)C1C(=O)N(C)C1(CC1C)C(=O)OCC(NC(=O)c1nc3ccccc3cc1O)C(=O)NC(C)C(=O)N2C (centres undefined)	active
COC(=O)C1SC(SC)=NC12c1ccccc1Nc1ccccc12 (centres undefined)	inactive
Cc1nc2ccc(Cl)cc2c2c1CCN2c1ccccc1	inactive
COc1cccc(-c2cc(O)c3cc(N4CCOCC4)ccc3n2)c1	active
COc1ccc(-c2c(-c3ccccc3)c(C)nc3nc(SC)nc(SC)c23)cc1OC	inactive
Cc1cc2nc3c(C#N)c(C)c(CCCl)c(Cl)n3c2cc1C	inactive
O=C(O)c1c2c(cc3c1CC1(Cc4ccccc4C1=O)C3)CCC2 (centres undefined)	inactive
Cc1ccc2nc3cc(C)c(=O)cc-3sc2c1	inactive
O=[N+]([O-])C(C(Cl)=C(Cl)Cl)=C(N1CCOCC1)N1CCOCC1	inactive
CC(=O)Oc1cc(C(F)(F)F)ccc1C(=O)OC1(C)OC(=O)c2ccc(C(F)(F)F)cc2O1 (centres undefined)	inactive
CN1C(=O)C2C=C3CCCCC3=CC2N(C)C1=O (centres undefined)	inactive
O=C(Nc1nc2ccc([N+](=O)[O-])cc2[n+]([O-])n1)C(F)(F)F	inactive

###

# Test system: K562
# method notes: NCI tumour cell line growth inhibition, 48 h
Activity calls are given as the source filed them. Rule as the data show it: active = GI50 up to about 1.1 µM and inactive = higher.
Possible outcomes: active, inactive

> print(dat)
                                   compound  measured.target  assigned.label
1  CCOP(=O)(OCC)C(Cc1ccc(OC)c(OC)c1)N=C(c1ccccc1)c1ccccc1 (stereo not given)             K562          active
2  Cc1cc(C)nc(SCC(=O)OC2CC(C)CCC2C(C)C)n1 (stereo not given)             K562        inactive
3        CCCCCNC(=O)c1c(O)[nH]c(=S)[nH]c1=O             K562        inactive
4  CN1CCc2cc(N)cc3c2C1Cc1ccc2c(c1-3)OCO2 (stereo not given)             K562        inactive
5  Cc1cc(S(N)(=O)=O)c(S/C(=N\Nc2ccc([N+](=O)[O-])cc2)c2ccc(Cl)cc2)cc1Cl             K562        inactive

###

# System: SF-539
# method notes: NCI tumour cell line growth inhibition, 48 h
The source made the active and inactive calls. No stated cut-off is given here; in the data, active = GI50 up to about 1.1 µM and inactive = higher.
Possible outcomes: active, inactive

> print(dat)
                                    compound  assigned.label
 1  COc1cc2c(c(OC)c1OC)-c1ccc(SC)c(=O)cc1C(CC(=O)Oc1cccc(F)c1)C2 (stereo not given)          active
 2  COC(=O)C1=C(c2ccc(OC)c(OC)c2)OC(c2ccc(OC)c(OC)c2)C1 (stereo not given)        inactive
 3                  O=C(O)CC(CC(=O)O)n1cccc1        inactive
 4  Cn1c(=O)c2nc(/N=N/Nc3nncs3)[nH]c2n(C)c1=O        inactive
 5  Cc1ccc(Oc2ccc([N+](=O)[O-])cc2[N+](=O)[O-])c(C)c1        inactive
 6  CCN(CC)CCNc1ccc([N+](=O)[O-])c2nc3ccc(OC)cc3c(N)c12        inactive
 7  CC(=O)Oc1ccc(C2SCc3nc4ccccc4n32)cc1 (stereo not given)        inactive
 8  Cc1cc(C)c(S(=O)(=O)N[C@@H](/C=C(\Br)CO)C(C)C)c(C)c1        inactive
 9  Cc1cn(C2CC(SCCO)C(CO)O2)c(=O)[nH]c1=O (stereo not given)        inactive
10  CC(C)=CCCC1(Sc2ccccc2)C(=O)OCC1C=C(C)C (stereo not given)        inactive
